test_details: MRT in intravenously dosed dog
Format: ADME, organism-based, Canis lupus familiaris
stated_conditions: in vivo, iv
property: MRT (h)

a: CCNC(=O)N1C[C@H]2[C@H](C)[C@@H](C)[C@H](/C=C/c3ccc(-c4ccccc4C#N)cn3)[C@@H]3[C@@H](C)OC(=O)[C@@]32C1
b: Cc1cccc(-c2ccc(/C=C/[C@@H]3[C@@H]4[C@@H](C)OC(=O)[C@]4(O)CC(F)(F)[C@H]3C)nc2)c1C#N
INPUT: Which value of MRT is smaller, the one for a or the one for b ? Use the label to indicate which entry you chose.
OUTPUT: b

###

test_details: Oral bioavailability in dog at 1 mg/kg
Type: ADME, organism-based, Canis lupus familiaris
stated_conditions: in vivo
property: bioavailability (%)
Number only, in %; omit the unit.

INPUT: Entry under review: C[C@H]1OC(=O)[C@]2(N)CC(F)(F)[C@@H](C)[C@H](/C=C/c3ccc(-c4ccccc4C#N)cn3)[C@H]12 . Reported bioavailability?
OUTPUT: 100

###

system_name: Voltage-gated inwardly rectifying potassium channel KCNH2 (Homo sapiens, UniProt Q12809)
Sequence (Q12809 whole entry): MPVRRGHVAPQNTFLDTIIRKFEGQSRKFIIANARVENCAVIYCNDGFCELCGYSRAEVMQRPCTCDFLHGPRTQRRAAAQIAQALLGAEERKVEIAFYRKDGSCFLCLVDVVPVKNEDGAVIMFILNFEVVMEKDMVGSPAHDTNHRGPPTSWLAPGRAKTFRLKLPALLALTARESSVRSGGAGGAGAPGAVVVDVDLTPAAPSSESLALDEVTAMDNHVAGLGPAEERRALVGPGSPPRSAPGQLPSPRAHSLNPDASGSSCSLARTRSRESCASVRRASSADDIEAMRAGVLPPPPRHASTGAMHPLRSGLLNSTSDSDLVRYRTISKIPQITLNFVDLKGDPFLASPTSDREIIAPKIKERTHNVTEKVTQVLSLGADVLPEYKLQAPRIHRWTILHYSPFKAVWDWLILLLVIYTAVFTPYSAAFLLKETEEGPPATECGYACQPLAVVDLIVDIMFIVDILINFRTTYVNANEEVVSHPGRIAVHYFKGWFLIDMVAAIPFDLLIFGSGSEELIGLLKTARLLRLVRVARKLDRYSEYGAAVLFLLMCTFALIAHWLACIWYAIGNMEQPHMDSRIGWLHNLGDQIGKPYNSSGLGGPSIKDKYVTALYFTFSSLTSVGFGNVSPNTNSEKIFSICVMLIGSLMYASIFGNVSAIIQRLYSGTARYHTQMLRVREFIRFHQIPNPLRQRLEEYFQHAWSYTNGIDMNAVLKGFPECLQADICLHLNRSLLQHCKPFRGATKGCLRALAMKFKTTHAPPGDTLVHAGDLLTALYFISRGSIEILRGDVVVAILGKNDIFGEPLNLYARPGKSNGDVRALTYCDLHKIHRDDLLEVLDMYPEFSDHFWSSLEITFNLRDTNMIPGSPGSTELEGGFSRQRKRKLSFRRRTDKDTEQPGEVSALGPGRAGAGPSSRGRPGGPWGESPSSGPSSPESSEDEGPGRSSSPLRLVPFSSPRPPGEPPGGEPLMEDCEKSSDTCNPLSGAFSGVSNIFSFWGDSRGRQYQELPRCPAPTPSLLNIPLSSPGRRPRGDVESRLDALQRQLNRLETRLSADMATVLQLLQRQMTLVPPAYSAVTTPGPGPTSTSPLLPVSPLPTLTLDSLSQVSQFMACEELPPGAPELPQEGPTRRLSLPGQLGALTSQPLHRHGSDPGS
test_details: Inhibition of [35S]MK-499 binding to hERG expressed in HEK293 cells
Format: toxicity, cell-based
property: IC50 (µM)
Write it as a number; the unit µM goes unstated.

# count of solved cases: 4
>>> numeric_readout("Cc1cccc(-c2ccc(/C=C/[C@@H]3[C@@H]4[C@@H](C)OC(=O)[C@]4(O)CC(F)(F)[C@H]3C)nc2)c1C#N")
9
>>> numeric_readout("C[C@@H]1[C@@H](C)[C@@H]2CN(C)C[C@@]23C(=O)O[C@H](C)[C@H]3[C@H]1/C=C/c1ccc(-c2ccccc2C#N)cn1")
14.8
>>> numeric_readout("C[C@H]1OC(=O)[C@]2(O)CC(F)(F)[C@@H](C)[C@H](/C=C/c3ccc(-c4cccc(F)c4)cn3)[C@H]12")
29
>>> numeric_readout("CCNC(=O)N1C[C@H]2[C@H](C)[C@@H](C)[C@H](/C=C/c3ccc(-c4ccccc4C#N)cn3)[C@@H]3[C@@H](C)OC(=O)[C@@]32C1")
9.2

INPUT: Could you tell me which IC50 is on file for C[C@H]1NC(=O)[C@]2(N)CC(F)(F)[C@@H](C)[C@H](/C=C/c3ccc(-c4ccccc4C#N)cn3)[C@H]12 ?
OUTPUT: 33

INPUT: For the compound CC[C@H]1[C@H](/C=C/c2ccc(-c3ccccc3C#N)cn2)[C@@H]2[C@@H](C)OC(=O)[C@]2(O)CC1(F)F , what IC50 is on record?
OUTPUT: 17

###

test_details: Volume of distribution in rat at 0.3 mg/kg, iv
Assay type: ADME, organism-based
stated_conditions: in vivo
property: Vd (L/kg)

>>> numeric_readout("Cc1cccc(-c2ccc(/C=C/[C@@H]3[C@@H]4[C@@H](C)OC(=O)[C@]4(O)CC(F)(F)[C@H]3C)nc2)c1C#N")
3.1

a: CCNC(=O)N1C[C@H]2[C@H](C)[C@@H](C)[C@H](/C=C/c3ccc(-c4ccccc4C#N)cn3)[C@@H]3[C@@H](C)OC(=O)[C@@]32C1
b: C[C@H]1OC(=O)[C@]2(N)CC(F)(F)[C@@H](C)[C@H](/C=C/c3ccc(-c4ccccc4C#N)cn3)[C@H]12
INPUT: I need your help: which of the pair a , b has higher Vd? I would appreciate it if you answered with the label of your choice.
OUTPUT: b
(b: 3.6 L/kg, a: 1.2 L/kg)

###

test_details: Oral bioavailability in dog
Type: ADME, organism-based, Canis lupus familiaris
stated_conditions: in vivo
property: bioavailability (%)

1: Cc1cccc(-c2ccc(/C=C/[C@@H]3[C@@H]4[C@@H](C)OC(=O)[C@]4(O)CC(F)(F)[C@H]3C)nc2)c1C#N
2: CCNC(=O)N1C[C@H]2[C@H](C)[C@@H](C)[C@H](/C=C/c3ccc(-c4ccccc4C#N)cn3)[C@@H]3[C@@H](C)OC(=O)[C@@]32C1
INPUT: Which record would sort first by descending bioavailability, 1 or 2 ? The response must carry the label of the picked entry.
OUTPUT: 2
(2: 19%, 1: 5%)

###

test_details: MRT in cynomolgus monkey at 1 mg/kg, iv
Assay type: ADME, organism-based, Macaca fascicularis
stated_conditions: in vivo
property: MRT (h)
Give the value, in units of h, as a plain number.

INPUT: Value lookup for MRT; key = C[C@H]1OC(=O)[C@]2(N)CC(F)(F)[C@@H](C)[C@H](/C=C/c3ccc(-c4ccccc4C#N)cn3)[C@H]12
OUTPUT: 24

###

test_details: Cmax in Sprague-Dawley rat at 10 mg/kg, po
Type: ADME, organism-based
Design: route oral, dose 10 mg/kg
stated_conditions: in vivo
property: Cmax (µM)
# output: bare number, implied unit µM

INPUT: Quick one: Cmax of C[C@H]1OC(=O)[C@]2(N)CC(F)(F)[C@@H](C)[C@H](/C=C/c3ccc(-c4ccccc4C#N)cn3)[C@H]12 ?
OUTPUT: 5.6

###

system_name: Proteinase-activated receptor 1 (Homo sapiens)
test_details: Antagonist activity at human PAR-1 expressed in HEK293 cells assessed as reduction in TRAP induced calcium signal at 3 uM by FLIPR analysis
property: IC50 (nM)

Worked cases, answers included:
>>> numeric_readout("CC1=NO[C@@]2(C1)C[C@H]1C(=O)O[C@H](C)[C@H]1[C@@H](c1ccc(-c3cccc(F)c3)cn1)[C@@H]2C")
134
>>> numeric_readout("C[C@@H]1[C@@H](C)[C@@H]2CN(C)C[C@@]23C(=O)O[C@H](C)[C@H]3[C@H]1/C=C/c1ccc(-c2ccccc2C#N)cn1")
28
>>> numeric_readout("C[C@H]1[C@H](c2ccc(-c3cccc(F)c3)cn2)[C@@H]2[C@@H](C)OC(=O)[C@@H]2C[C@@H]1C")
3
>>> numeric_readout("CNC(=O)N1C[C@H]2[C@H](C)[C@@H](C)[C@H](/C=C/c3ccc(-c4ccccc4C#N)cn3)[C@@H]3[C@@H](C)OC(=O)[C@@]32C1")
7
>>> numeric_readout("CCOC(=O)N1C[C@H]2[C@H](C)[C@@H](C)[C@H](/C=C/c3ccc(-c4ccccc4C#N)cn3)[C@@H]3[C@@H](C)OC(=O)[C@@]32C1")
4
>>> numeric_readout("C[C@H]1OC(=O)[C@@H]2CC(F)(F)[C@@H](C)[C@H](c3ccc(-c4cccc(F)c4)cn3)[C@H]12")
5
>>> numeric_readout("CC[C@H]1[C@H](/C=C/c2ccc(-c3ccccc3C#N)cn2)[C@@H]2[C@@H](C)OC(=O)[C@]2(O)CC1(F)F")
8
>>> numeric_readout("CCNC(=O)N1C[C@H]2[C@H](C)[C@@H](C)[C@H](/C=C/c3ccc(-c4ccccc4C#N)cn3)[C@@H]3[C@@H](C)OC(=O)[C@@]32C1")
7

a: C[C@H]1NC(=O)[C@]2(N)CC(F)(F)[C@@H](C)[C@H](/C=C/c3ccc(-c4ccccc4C#N)cn3)[C@H]12
b: Cc1cccc(-c2ccc(/C=C/[C@@H]3[C@@H]4[C@@H](C)OC(=O)[C@]4(O)CC(F)(F)[C@H]3C)nc2)c1C#N
INPUT: # returns the entry with the larger IC50; inputs a and b Provide the label of your selected option as the answer.
OUTPUT: a
(a: 6 nM, b: 3 nM)

###

test_details: Clearance in intravenously dosed cynomolgus monkey
Assay type: ADME, organism-based, Macaca fascicularis
stated_conditions: in vivo, iv
property: clearance (mL/min/kg)

>>> numeric_readout("Cc1cccc(-c2ccc(/C=C/[C@@H]3[C@@H]4[C@@H](C)OC(=O)[C@]4(O)CC(F)(F)[C@H]3C)nc2)c1C#N")
8.6
>>> numeric_readout("CCNC(=O)N1C[C@H]2[C@H](C)[C@@H](C)[C@H](/C=C/c3ccc(-c4ccccc4C#N)cn3)[C@@H]3[C@@H](C)OC(=O)[C@@]32C1")
7.7

###

test_details: Cmax in Sprague-Dawley rat at 50 mg/kg, po
Type: ADME, organism-based
Parameters: route oral, dose 50 mg/kg
stated_conditions: in vivo
property: Cmax (µM)
Write down the numeric answer in µM and omit the unit.

INPUT: Name the reported Cmax value associated with the compound C[C@H]1OC(=O)[C@]2(N)CC(F)(F)[C@@H](C)[C@H](/C=C/c3ccc(-c4ccccc4C#N)cn3)[C@H]12
OUTPUT: 28

###

system_name: Proteinase-activated receptor 1 (Homo sapiens, UniProt P25116)
Sequence (P25116 whole entry): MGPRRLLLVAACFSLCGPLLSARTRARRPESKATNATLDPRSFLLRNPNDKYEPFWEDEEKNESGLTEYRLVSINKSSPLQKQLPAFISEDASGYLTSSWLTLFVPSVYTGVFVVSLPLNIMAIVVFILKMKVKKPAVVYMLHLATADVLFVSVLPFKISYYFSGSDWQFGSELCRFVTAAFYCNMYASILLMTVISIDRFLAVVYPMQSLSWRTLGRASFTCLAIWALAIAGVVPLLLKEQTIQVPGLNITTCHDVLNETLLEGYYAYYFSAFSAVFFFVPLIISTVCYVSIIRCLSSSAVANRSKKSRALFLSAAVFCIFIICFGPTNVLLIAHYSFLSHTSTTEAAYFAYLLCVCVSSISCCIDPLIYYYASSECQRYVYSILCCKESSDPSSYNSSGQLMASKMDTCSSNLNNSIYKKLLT
test_details: Antagonist activity at human PAR-1 expressed in HEK293 cells assessed as reduction in TRAP induced calcium signal at 3 uM by FLIPR analysis
property: IC50 (nM)

I: C[C@H]1OC(=O)[C@@H]2CC3(NC(=O)NC3=O)[C@@H](C)[C@H](c3ccc(-c4cccc(F)c4)cn3)[C@H]12 (some centres undefined)
II: C[C@@H]1[C@@H](C)[C@@H]2CNC[C@@]23C(=O)O[C@H](C)[C@H]3[C@H]1/C=C/c1ccc(-c2ccccc2C#N)cn1
III: C[C@H]1OC(=O)[C@]2(N)CC(F)(F)[C@@H](C)[C@H](/C=C/c3ccc(-c4ccccc4C#N)cn3)[C@H]12
INPUT: Kindly sort the 3 molecules above from the smallest to the largest IC50. Put the labels in the requested order and list them out.
OUTPUT: III, II, I
